- System: c-Abl (mouse)
- measurementNotes: phosphorylation enrichment, bacterial display (enrichment ratio); higher = better substrate or ligand; peptides without Tyr show the background;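 note: 11-residue human phosphosite peptides and single-mutation variants displayed on the E. coli surface, counted by deep sequencing, each peptide's frequency after selection divided by its frequency in the unselected input library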;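 note: frequency after pTyr selection over input frequency; kinase dosed for 20-30% of maximal phosphorylation in three min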
Use true when the recorded phosphorylation enrichment is no lower than 0.8; use false when it is lower.

primarysequence="DPLLTYRFPPK [LMNA_Y481]" assignedcategory=false
primarysequence="KQLGEYKFQNA [ALB_Y425_E420K]" assignedcategory=false
primarysequence="YTFNSYYMHWV [IGHV1-46_Y51_T49N]" assignedcategory=true
primarysequence="LTTEAYEWEPC [ELMOD3_Y61_R66C]" assignedcategory=true
primarysequence="SFTDPYAQPPL [KMT2D_Y2378_YF]" assignedcategory=false
primarysequence="SFCFRYCCAAR [SUMF1_Y344_R345C_YF]" assignedcategory=false
primarysequence="FTRNYYVWAVL [CYBA_Y88_R90W]" assignedcategory=true
primarysequence="CTTIHYNFMCN [TP53_Y234_Y236F]" assignedcategory=false
primarysequence="ISDDNYGRIRL [ARCN1_Y310_K309N]" assignedcategory=false
primarysequence="TTTQAYRVNER [PRKN_Y391_D394N]" assignedcategory=false
primarysequence="TGEDWYVLVRV [SF3B3_Y904_G908R]" assignedcategory=true
primarysequence="ICTVDYLLRLQ [RYR1_Y3921]" assignedcategory=true

###

- Tested on: c-Abl (mouse)
- measurementNotes: phosphorylation enrichment, bacterial display (enrichment ratio); higher = better substrate or ligand; peptides without Tyr show the background
Binary call on phosphorylation enrichment: TRUE from 0.6 upward, FALSE beneath that.

primarysequence="EVASVYQSYQP [MAVS_Y92]" assignedcategory=TRUE
primarysequence="RLLRGYDQSAF [HLA-C_Y137_YF]" assignedcategory=TRUE
primarysequence="RGRSTCFWPRP [GAGE12J_Y9_Y9C_YF]" assignedcategory=TRUE
primarysequence="FYDANYDGKEY [MAPRE2_Y162]" assignedcategory=TRUE
primarysequence="LFSGDYFRIQG [DDR2_Y740_YF]" assignedcategory=TRUE
primarysequence="EREYKYGAHNH [OAT_Y50_Y55H]" assignedcategory=FALSE
primarysequence="TAALWYIYLHT [ENG_Y612_S615L]" assignedcategory=TRUE
primarysequence="DENWFYMRAAS [RPS19_Y54_T55M]" assignedcategory=TRUE
primarysequence="GESKDYALHAG [SVIL_Y185_V189A]" assignedcategory=FALSE
primarysequence="ELQGTYTSLQQ [KIF3C_Y574_R571Q]" assignedcategory=TRUE
primarysequence="YSKTQYNQVPS [CXADR_Y318]" assignedcategory=TRUE
primarysequence="IRKAEYPFSSE [ATP2C1_Y452]" assignedcategory=FALSE
primarysequence="MDYRSYPHEYG [RBM10_Y44_R46H]" assignedcategory=FALSE

###

- testedTarget: EPHB1 (UniProt P54762)
- Sequence (P54762 whole entry, looked up): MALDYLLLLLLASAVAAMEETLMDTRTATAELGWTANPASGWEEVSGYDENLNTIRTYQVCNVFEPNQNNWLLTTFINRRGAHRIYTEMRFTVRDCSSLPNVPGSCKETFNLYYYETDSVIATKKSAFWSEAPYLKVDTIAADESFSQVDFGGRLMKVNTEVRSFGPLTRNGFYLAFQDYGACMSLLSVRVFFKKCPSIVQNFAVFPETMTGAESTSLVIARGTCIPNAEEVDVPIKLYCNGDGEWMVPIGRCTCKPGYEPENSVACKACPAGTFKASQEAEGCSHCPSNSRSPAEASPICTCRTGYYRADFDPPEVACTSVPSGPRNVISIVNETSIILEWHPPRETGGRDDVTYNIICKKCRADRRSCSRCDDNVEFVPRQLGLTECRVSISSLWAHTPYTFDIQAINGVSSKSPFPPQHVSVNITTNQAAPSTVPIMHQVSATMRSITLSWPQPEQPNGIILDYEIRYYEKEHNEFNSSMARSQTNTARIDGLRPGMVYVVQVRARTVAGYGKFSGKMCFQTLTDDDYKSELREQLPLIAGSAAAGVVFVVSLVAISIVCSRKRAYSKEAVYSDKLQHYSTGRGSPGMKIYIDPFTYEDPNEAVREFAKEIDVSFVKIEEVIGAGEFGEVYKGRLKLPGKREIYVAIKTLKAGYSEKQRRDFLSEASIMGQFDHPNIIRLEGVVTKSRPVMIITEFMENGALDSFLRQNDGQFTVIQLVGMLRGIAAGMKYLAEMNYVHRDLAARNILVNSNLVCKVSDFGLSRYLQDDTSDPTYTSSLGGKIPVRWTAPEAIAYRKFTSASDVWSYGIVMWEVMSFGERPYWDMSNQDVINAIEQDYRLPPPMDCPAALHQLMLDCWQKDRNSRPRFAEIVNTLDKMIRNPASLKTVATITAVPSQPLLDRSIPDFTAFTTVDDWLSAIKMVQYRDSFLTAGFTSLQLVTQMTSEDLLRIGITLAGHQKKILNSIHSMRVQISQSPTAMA
- measurementNotes: phosphorylation enrichment, bacterial display (enrichment ratio); higher = better substrate or ligand; peptides without Tyr show the background
Classification by phosphorylation enrichment follows these ranges: low bin (below 0.5), mid bin (0.5 to below 0.6), high bin (0.6 or more)

primarysequence="PELINYHQHNF [BTK_Y361_S366F]" testedtarget="EPHB1 (UniProt P54762)" assignedcategory="high bin"
primarysequence="KVPCHYDDPGK [FOXG1_Y246_R244C]" testedtarget="EPHB1 (UniProt P54762)" assignedcategory="low bin"
primarysequence="ISDDNYGRIRL [ARCN1_Y310_K309N]" testedtarget="EPHB1 (UniProt P54762)" assignedcategory="mid bin"
primarysequence="VNTMLYEKFTY [TEK_Y1108_T1106M]" testedtarget="EPHB1 (UniProt P54762)" assignedcategory="high bin"
primarysequence="PGRRFYVVACD [RNASE3_Y134]" testedtarget="EPHB1 (UniProt P54762)" assignedcategory="mid bin"
primarysequence="DVFRQYASLRG [GANAB_Y379_T383R]" testedtarget="EPHB1 (UniProt P54762)" assignedcategory="low bin"
primarysequence="VQQVIYATGAL [MYH7_Y422]" testedtarget="EPHB1 (UniProt P54762)" assignedcategory="high bin"
primarysequence="GRTNIYKNKKD [SLC26A3_Y520]" testedtarget="EPHB1 (UniProt P54762)" assignedcategory="low bin"
primarysequence="MEYAKYGSLRG [RET_Y809_V804M]" testedtarget="EPHB1 (UniProt P54762)" assignedcategory="mid bin"
primarysequence="LQLLGHRPVFS [CHST6_Y358_Y358H_YF]" testedtarget="EPHB1 (UniProt P54762)" assignedcategory="high bin"
primarysequence="QRPGPYDRPGA [HNRNPH2_Y210]" testedtarget="EPHB1 (UniProt P54762)" assignedcategory="low bin"
primarysequence="IHHIDYFKKTT [FGFR1_Y653_YF]" testedtarget="EPHB1 (UniProt P54762)" assignedcategory="low bin"
primarysequence="AALLNYKAGRD [GRIN2A_Y737_V734L]" testedtarget="EPHB1 (UniProt P54762)" assignedcategory="low bin"

###

- testedTarget: EPHB1 (UniProt P54762)
- measurementNotes: phosphorylation enrichment, bacterial display (enrichment ratio); higher = better substrate or ligand; peptides without Tyr show the background
assayEndpoint: phosphorylation enrichment

primarysequence="FSCLPYGRLAF [SLC52A2_Y305_YF]" testedtarget="EPHB1 (UniProt P54762)" assayendpoint="phosphorylation enrichment" testresult=0.352
primarysequence="KAIMIYVSSFY [ACTN4_Y260_T259I]" testedtarget="EPHB1 (UniProt P54762)" assayendpoint="phosphorylation enrichment" testresult=0.47
primarysequence="DALDNYVIRGV [PCCA_Y473]" testedtarget="EPHB1 (UniProt P54762)" assayendpoint="phosphorylation enrichment" testresult=0.512
primarysequence="TTEHIYGDKFF [UBA7_Y524_N527K]" testedtarget="EPHB1 (UniProt P54762)" assayendpoint="phosphorylation enrichment" testresult=0.468
primarysequence="FEPWVYSFSFE [PRKDC_Y647_YF]" testedtarget="EPHB1 (UniProt P54762)" assayendpoint="phosphorylation enrichment" testresult=0.775
primarysequence="DEEPPHRGPFC [SASH1_Y551_Y551H]" testedtarget="EPHB1 (UniProt P54762)" assayendpoint="phosphorylation enrichment" testresult=0.619
primarysequence="VTVLDYEKIGK [SYT1_Y365_D366E]" testedtarget="EPHB1 (UniProt P54762)" assayendpoint="phosphorylation enrichment" testresult=1.07
primarysequence="MSLRSYGSWEG [APC_Y96_R99W]" testedtarget="EPHB1 (UniProt P54762)" assayendpoint="phosphorylation enrichment" testresult=0.581
primarysequence="ETWHNYHKFDS [MATR3_Y243_S240W]" testedtarget="EPHB1 (UniProt P54762)" assayendpoint="phosphorylation enrichment" testresult=0.799
primarysequence="LTGIAYSLPHW [SLC22A14_Y291]" testedtarget="EPHB1 (UniProt P54762)" assayendpoint="phosphorylation enrichment" testresult=0.969
primarysequence="DMLFQYLKQIE [RPAP3_Y569_YF]" testedtarget="EPHB1 (UniProt P54762)" assayendpoint="phosphorylation enrichment" testresult=0.684
primarysequence="IEPCIYIPEDD [XPNPEP3_Y455_G453C]" testedtarget="EPHB1 (UniProt P54762)" assayendpoint="phosphorylation enrichment" testresult=0.648
primarysequence="VVQGIYGFHHF [UFSP2_Y285_YF]" testedtarget="EPHB1 (UniProt P54762)" assayendpoint="phosphorylation enrichment" testresult=1.75
primarysequence="FISVGYVDDTQ [HLA-B_Y51]" testedtarget="EPHB1 (UniProt P54762)" assayendpoint="phosphorylation enrichment" testresult=0.507
primarysequence="WQQQSYLDLGI [CTNNB1_Y30_S33L]" testedtarget="EPHB1 (UniProt P54762)" assayendpoint="phosphorylation enrichment" testresult=0.719
primarysequence="LLTALYFISWG [KCNH2_Y780_R784W]" testedtarget="EPHB1 (UniProt P54762)" assayendpoint="phosphorylation enrichment" testresult=1.04
primarysequence="RSSGPYGGGGQ [HNRNPA1_Y341]" testedtarget="EPHB1 (UniProt P54762)" assayendpoint="phosphorylation enrichment" testresult=0.466
primarysequence=LANNEYYFRVC testedtarget="EPHB1 (UniProt P54762)" assayendpoint="phosphorylation enrichment" testresult=0.682
primarysequence="TTSQLYDAVPI [PDPK1_Y9]" testedtarget="EPHB1 (UniProt P54762)" assayendpoint="phosphorylation enrichment" testresult=13.4
primarysequence="MLEVPYVDRNS [F10_Y384]" testedtarget="EPHB1 (UniProt P54762)" assayendpoint="phosphorylation enrichment" testresult=0.499
primarysequence="NPQKSYFIRLF [WAS_Y83_YF]" testedtarget="EPHB1 (UniProt P54762)" assayendpoint="phosphorylation enrichment" testresult=0.58
primarysequence="VERIGYDFIPT [CBS_Y308_G305R]" testedtarget="EPHB1 (UniProt P54762)" assayendpoint="phosphorylation enrichment" testresult=0.544
primarysequence="CDFKKYGKGLR [ZNF445_Y433_Y428C_YF]" testedtarget="EPHB1 (UniProt P54762)" assayendpoint="phosphorylation enrichment" testresult=0.409
primarysequence="YMLYQYLKQIE [RPAP3_Y569_D564Y]" testedtarget="EPHB1 (UniProt P54762)" assayendpoint="phosphorylation enrichment" testresult=13.3
primarysequence="SFPSTYRYERG [INPPL1_Y661_P659S]" testedtarget="EPHB1 (UniProt P54762)" assayendpoint="phosphorylation enrichment" testresult=0.453
primarysequence="VNKIYYPDFIV [LIG3_Y768]" testedtarget="EPHB1 (UniProt P54762)" assayendpoint="phosphorylation enrichment" testresult=0.621
primarysequence="VCDSNYSASRW [LRP5_Y1552_D1551N]" testedtarget="EPHB1 (UniProt P54762)" assayendpoint="phosphorylation enrichment" testresult=1.62
primarysequence="AEDKPYAELWM [MPI_Y46]" testedtarget="EPHB1 (UniProt P54762)" assayendpoint="phosphorylation enrichment" testresult=0.868
primarysequence="SLDLSYYHTSS [EMD_Y181_P183H]" testedtarget="EPHB1 (UniProt P54762)" assayendpoint="phosphorylation enrichment" testresult=0.765
